- System: barnyardgrass
- procedure_details: Test A preemergence
- Assay type: in vivo, Echinochloa crus-galli
- study_conditions: 125 g ai/ha, 0 to 100 scale where 0 is no effect and 100 is complete control
measured_property: Plant response rating, Barnyardgrass

{"structure_smiles_string": "COc1cnn(-c2c(F)cccc2Oc2ncc(Cl)cn2)c1", "recorded_value": 30}
{"structure_smiles_string": "CCCc1cnc(Oc2cccc(C#N)c2-n2cc(Br)cn2)nc1", "recorded_value": 0}
{"structure_smiles_string": "Clc1cnc(Oc2ccccc2-n2cnc(Br)n2)nc1", "recorded_value": 0}
{"structure_smiles_string": "FC(F)c1cccc(Oc2ncc(I)cn2)c1-n1cc(Br)cn1", "recorded_value": 0}
{"structure_smiles_string": "N#Cc1cccc(Oc2ncc(I)cn2)c1-n1cc(Br)cn1", "recorded_value": 0}
{"structure_smiles_string": "Fc1cnc(Oc2cccc(F)c2-n2cc(OCC(F)(F)F)cn2)nc1", "recorded_value": 80}
{"structure_smiles_string": "Cc1cnn(-c2ccccc2Oc2ncc(Cl)cn2)c1", "recorded_value": 20}
{"structure_smiles_string": "O=Cc1cccc(Oc2ncc(Cl)cn2)c1-n1cc(Br)cn1", "recorded_value": 0}
{"structure_smiles_string": "CCOc1cn(-c2c(Br)cccc2Oc2ncc(Cl)cn2)nn1", "recorded_value": 50}
{"structure_smiles_string": "N#Cc1cccc(Oc2ncc(Br)cn2)c1-n1cc(I)cn1", "recorded_value": 60}
{"structure_smiles_string": "Cc1ccc(Oc2ncc(Cl)cn2)c(-n2cc(Br)cn2)c1", "recorded_value": 40}
{"structure_smiles_string": "CC(=O)c1cccc(Oc2ncc(Cl)cn2)c1-n1cc(Br)cn1", "recorded_value": 0}
{"structure_smiles_string": "Brc1cnc(Oc2ccccc2-n2cc(Br)c(Br)n2)nc1", "recorded_value": 0}

====

- Tested on: pigweed
- procedure_details: Test A preemergence
- Format: in vivo, Amaranthus retroflexus
- study_conditions: 125 g ai/ha
# reported Pigweed plant response rating (0 to 100 scale); entries follow
measured_property: Pigweed plant response rating (0 to 100 scale)

{"compound": "CC(C)Oc1cnn(-c2c(C#N)cccc2Oc2ncc(Br)cn2)c1 [Compound 254]", "subject_of_test": "pigweed", "recorded_value": 90}
{"compound": "FC(F)(F)c1cnn(-c2c(Cl)cccc2Oc2ncc(Cl)cn2)c1 [Compound 167]", "subject_of_test": "pigweed", "recorded_value": 100}
{"compound": "NC(=O)c1cccc(Oc2ncc(Cl)cn2)c1-n1cc(C(F)(F)F)cn1 [Compound 278]", "subject_of_test": "pigweed", "recorded_value": 10}
{"compound": "Cc1cc(C)n(-c2ccccc2Oc2ncc(Cl)cn2)n1 [Compound 264]", "subject_of_test": "pigweed", "recorded_value": 0}
{"compound": "C=C(C)c1cccc(Oc2ncc(Cl)cn2)c1-n1cc(Br)cn1 [Compound 198]", "subject_of_test": "pigweed", "recorded_value": 100}
{"compound": "CC#Cc1cnn(-c2ccccc2Oc2ncc(Cl)cn2)c1 [Compound 189]", "subject_of_test": "pigweed", "recorded_value": 100}
{"compound": "N#Cc1cnn(-c2c(Oc3ncc(Cl)cn3)cccc2C(F)F)c1 [Compound 236]", "subject_of_test": "pigweed", "recorded_value": 100}
{"compound": "CNN=Cc1cccc(Oc2ncc(Cl)cn2)c1-n1cc(Br)cn1 [Compound 289]", "subject_of_test": "pigweed", "recorded_value": 20}
{"compound": "COc1ccc(Br)c(-n2cc(Br)cn2)c1Oc1ncc(Cl)cn1 [Compound 201]", "subject_of_test": "pigweed", "recorded_value": 0}
{"compound": "Clc1cnc(Oc2cccc(-c3cccnc3)c2-n2cc(Br)cn2)nc1 [Compound 290]", "subject_of_test": "pigweed", "recorded_value": 0}
{"compound": "Fc1cccc(Oc2ncc(Cl)cn2)c1-n1cc(Br)cn1 [Compound 178]", "subject_of_test": "pigweed", "recorded_value": 100}
